Test system: Saccharomyces cerevisiae
test protocol: protein stability index of tFT-peptide fusion (C-terminal peptide) (PSI (0-1 scale)); higher = more stable (slower turnover)
conditions used: genetic background: wild type; temperature: 30 C
Some sequences, each annotated with its measured protein stability index.
// no unit string in output, number only

# annotated cases, reported protein stability index shown
INSERT INTO measurements (residues, parameter_measured, reported_result) VALUES
  ('SISLVLPASCIT', 'protein stability index', 0.693),
  ('FGALVVCFLTRC', 'protein stability index', 0.374),
  ('LLVLGHVCAANF', 'protein stability index', 0.601);

// query Name the reported protein stability index value associated with the sequence "TWVVPSASWLVF"
// result 0.598

// query Next sequence up: "AKKKKKTKRRKK"
// result 0.692

// query Next sequence up: "YGVCFKAFQFKL"
// result 0.676

// query Next sequence up: "GCRLVSDCRVFV"
// result 0.67

// query Next sequence up: "YLRVRRPGSALV"
// result 0.654

// query Next sequence up: "PLFPPPPLRSWP"
// result 0.766

// query Next sequence up: "PSPPPLSPPTPR"
// result 0.667

###

System: Saccharomyces cerevisiae
test protocol: protein stability index of tFT-peptide fusion (C-terminal peptide) (PSI (0-1 scale)); higher = more stable (slower turnover)
conditions used: genetic background: wild type; temperature: 30 C
Classify as follows. Reported protein stability index greater than or equal to 0.2: fulfilled. Reported protein stability index below: not fulfilled.

INSERT INTO measurements (residues, group_label) VALUES
  ('TYHRSYLLATVV', 'fulfilled'),
  ('PPRCLLPPPSRS', 'fulfilled'),
  ('RGGVLYVSIRCK', 'fulfilled'),
  ('VWICPTLFLLFS', 'fulfilled');

// query Decide: is the reported value of protein stability index for "SPSTPQALSNFS" equal to or greater than 0.2?
// result fulfilled

// query Next sequence up: "FMVYRIHSSAVM"
// result fulfilled

// query Next sequence up: "SLARLRRICFNT"
// result fulfilled

// query Next sequence up: "VRFLLSLCCALL"
// result fulfilled

// query Next sequence up: "SRARIRLPRILS"
// result fulfilled

// query Next sequence up: "CGGLFDVALGVG"
// result fulfilled

// query Next sequence up: "YLRVRRPGSALV"
// result fulfilled

###

Test system: Saccharomyces cerevisiae
test protocol: protein stability index of tFT-peptide fusion (C-terminal peptide) (PSI (0-1 scale)); higher = more stable (slower turnover)
conditions used: genetic background: das1 deletion; temperature: 37 C
Classify as follows. Reported protein stability index greater than or equal to 0.6: T. Reported protein stability index below: F.

A selection of reference data follows.
INSERT INTO measurements (residues, group_label) VALUES
  ('GEGISCLLRRLT', 'T'),
  ('SIFLCRLQNLLI', 'T'),
  ('DLIGSVRRLFCV', 'T'),
  ('VSFLLYNFLSVF', 'F');

// query Decide: is the reported value of protein stability index for "LAPPFPVVLTPA" equal to or greater than 0.6?
// result F

// query Next sequence up: "CFGSALLKCWLC"
// result T

// query Next sequence up: "VVFLFVEAVVGV"
// result F

// query Next sequence up: "ARTWVVLLICGH"
// result F

// query Next sequence up: "VLLFGLAFFFSF"
// result F

// query Next sequence up: "MLECIIHLTITR"
// result F

// query Next sequence up: "CCVFFLLCLSLF"
// result F

// query Next sequence up: "CVSFFRCLFLIV"
// result F

// query Next sequence up: "VWICPTLFLLFS"
// result F

// query Next sequence up: "YFYIRLGIAYMM"
// result F

// query Next sequence up: "LPPPYSPRLFHN"
// result T

// query Next sequence up: "VAFLYCHFFYCI"
// result F

###

Test system: Saccharomyces cerevisiae
test protocol: protein stability index of tFT-peptide fusion (C-terminal peptide) (PSI (0-1 scale)); higher = more stable (slower turnover)
conditions used: genetic background: wild type; temperature: 30 C
parameter measured: protein stability index
// no unit string in output, number only

# annotated cases, reported protein stability index shown
INSERT INTO assay_data (residues, reported_result) VALUES
  ('GVYRLCLLLLVY', 0.218),
  ('SPLRPPSLPAPG', 0.653),
  ('DVVWRVVNDSDL', 0.712);

// query Name the reported protein stability index value associated with the sequence "TASPAHTPTKTR"
// result 0.608

// query Next sequence up: "GLVVATECGGRP"
// result 0.648

// query Next sequence up: "PSLIRTPTTPSP"
// result 0.69

###

System: Saccharomyces cerevisiae
test protocol: protein stability index of tFT-peptide fusion (C-terminal peptide) (PSI (0-1 scale)); higher = more stable (slower turnover)
conditions used: genetic background: das1 deletion; temperature: 30 C
parameter measured: protein stability index
// no unit string in output, number only

INSERT INTO assay_data (residues, parameter_measured, reported_result) VALUES
  ('WSSWFLWVIFRL', 'protein stability index', 0.34),
  ('MLECIIHLTITR', 'protein stability index', 0.431),
  ('LLRIFLPLLYLL', 'protein stability index', 0.329),
  ('IFAVLVSGSFFF', 'protein stability index', 0.324),
  ('LSASFYFVFFSN', 'protein stability index', 0.506),
  ('VIAYSLLSWGDF', 'protein stability index', 0.378),
  ('LHIHGAGIVCAG', 'protein stability index', 0.368),
  ('SDLQVMKLRSVC', 'protein stability index', 0.619),
  ('FLFCACIRVFSY', 'protein stability index', 0.144),
  ('PLPSEKAPTLLL', 'protein stability index', 0.637);

// query Name the reported protein stability index value associated with the sequence "LSRRFSLALFWT"
// result 0.654

// query Next sequence up: "FAVTRVHLACWG"
// result 0.368

// query Next sequence up: "WYYTWKQLVMIV"
// result 0.106

// query Next sequence up: "SIFLCRLQNLLI"
// result 0.632

// query Next sequence up: "MYESIRILVNKV"
// result 0.62

// query Next sequence up: "FVWWFFFLSVVS"
// result 0.265

// query Next sequence up: "YARFWYSKAFIC"
// result 0.581

// query Next sequence up: "DLRRYRTLIPCK"
// result 0.288

// query Next sequence up: "LVFSFFFLFFFM"
// result 0.375

###

System: Saccharomyces cerevisiae
test protocol: protein stability index of tFT-peptide fusion (C-terminal peptide) (PSI (0-1 scale)); higher = more stable (slower turnover)
conditions used: genetic background: das1 deletion; temperature: 30 C
parameter measured: protein stability index
// no unit string in output, number only

# annotated cases, reported protein stability index shown
INSERT INTO assay_data (residues, study_system, parameter_measured, reported_result) VALUES
  ('ALAFSKIPSVFL [YMR153C-A C-terminal 12 aa]', 'Saccharomyces cerevisiae', 'protein stability index', 0.722),
  ('YSISISLHTPCV [YHR049C-A C-terminal 12 aa]', 'Saccharomyces cerevisiae', 'protein stability index', 0.66),
  ('SIDELETEISTW [BCP1 C-terminal 12 aa]', 'Saccharomyces cerevisiae', 'protein stability index', 0.718),
  ('KGCYKLCKNLLE [KEI1 C-terminal 12 aa]', 'Saccharomyces cerevisiae', 'protein stability index', 0.686),
  ('FVNNKGNFKDLK [ARG3 C-terminal 12 aa]', 'Saccharomyces cerevisiae', 'protein stability index', 0.722);

// query Look up protein stability index with Saccharomyces cerevisiae for this sequence: YHAVDSTMSPKN [OST4 C-terminal 12 aa]
// result 0.693

// query Next sequence up: TEPLYILRWLRS [YDR290W C-terminal 12 aa]
// result 0.678

// query Next sequence up: SASSTPSSTTMS [SPT20 C-terminal 12 aa]
// result 0.682

// query Next sequence up: ESSKDVKRNNKD [SDH7 C-terminal 12 aa]
// result 0.691

###

Test system: Saccharomyces cerevisiae
test protocol: protein stability index of tFT-peptide fusion in wild type (PSI (0-1 scale)); higher = more stable (slower turnover)
conditions used: genetic background: wild type
Some sequences, each annotated with its measured protein stability index.
// no unit string in output, number only

# annotated cases, reported protein stability index shown
INSERT INTO assay_data (residues, study_system, reported_result) VALUES
  ('LVVYLSEVACIN', 'Saccharomyces cerevisiae', 0.264),
  ('LKILRQKMNHQF', 'Saccharomyces cerevisiae', 0.255),
  ('CLVSYPILLFFR', 'Saccharomyces cerevisiae', 0.0543);

Next:
// query Name the reported protein stability index value associated with the sequence "CTNCGYKFRTNN"
// result 0.216
